Taken from ChEMBL document CHEMBL1149634.

Listed here are molecules together with their documented MIC.
# System: Candida parapsilosis
# measurement-description: Antifungal activity against Candida parapsilosis ATCC 22019 after 48 hrs by broth microdilution test
# Format: functional
# applied-conditions: Lodderomyces parapsilosis, ATCC 22019, 48 h
Field format: number, assumed µg/mL, no unit text.

Look up MIC for this molecule: `CCCNC(=S)NNC(=O)Cn1c(=O)oc2ccc(C)cc21`
256

Entry `Cc1ccc2oc(=O)n(CC(=O)NN)c2c1` has what MIC?
128

Would you mind telling me what MIC value was observed for `COc1ccc(/C=N/NC(=O)Cn2c(=O)oc3ccc(C)cc32)cc1` ?
512

Tell me the measured MIC of `CNC(=S)NNC(=O)Cn1c(=O)oc2ccc(C)cc21` , please.
128

Item `CNc1nnc(Cn2c(=O)oc3ccc(C)cc32)s1` has what recorded MIC?
256

Quick one: MIC for `Cc1ccc2oc(=O)n(Cc3n[nH]c(=S)n3-c3ccccc3)c2c1` ?
128

Bench note: what MIC did `CCNC(=S)NNC(=O)Cn1c(=O)oc2ccc(C)cc21` show?
256

May I ask what MIC has been recorded for `CCn1c(Cn2c(=O)oc3ccc(C)cc32)n[nH]c1=S` ?
256

Dear colleague, I am looking for the recorded MIC of the following molecule: `Cc1ccc2oc(=O)n(CC(=O)N/N=C/c3ccccc3)c2c1`
128

Look at this molecule and give its reported MIC. `CCNc1nnc(Cn2c(=O)oc3ccc(C)cc32)s1`
256

As a next step, examine the molecule that follows.
Dear colleague, I am looking for the recorded MIC of the following molecule: `Cc1ccc2oc(=O)n(CC(=O)N/N=C/c3ccc(Br)cc3)c2c1`
128

###

# Tested on: Mus musculus
# measurement-description: Analgesic activity in mouse assessed as inhibition of acetic acid induced-abdominal writhing at 100 mg/kg, ip by Koster test
# Type: functional
# applied-conditions: Abdomen, route intraperitoneal
property-measured: inhibition in vivo at 100 mg/kg (%)
Write down the numeric answer in % and omit the unit.

Worked set:
Which value of inhibition in vivo at 100 mg/kg has been reported for `COc1ccc(/C=N/NC(=O)Cn2c(=O)oc3ccc(C)cc32)cc1` in the records?
65.7

Recorded inhibition in vivo at 100 mg/kg for `Cc1ccc2oc(=O)n(CC(=O)NNC(=S)Nc3ccccc3)c2c1` , please?
55.6

Then there is this molecule:
Could you tell me which inhibition in vivo at 100 mg/kg is on file for `CCNC(=S)NNC(=O)Cn1c(=O)oc2ccc(C)cc21` ?
44.4

###

# System: Mus musculus
# measurement-description: Analgesic activity in mouse assessed as inhibition of acetic acid induced-abdominal writhing at 100 mg/kg, ip by Koster test
# Type: functional
# applied-conditions: Abdomen, route intraperitoneal
property-measured: inhibition in vivo at 100 mg/kg (%)
Numeric only. Scale: %

Consider the worked cases shown below.
Entry `Cc1ccc2oc(=O)n(CC(=O)NN)c2c1` : reported inhibition in vivo at 100 mg/kg = ?
73.8

Which inhibition in vivo at 100 mg/kg value belongs to `CNC(=S)NNC(=O)Cn1c(=O)oc2ccc(C)cc21` ?
61.7

Item under review: `CCn1c(Cn2c(=O)oc3ccc(C)cc32)n[nH]c1=S` . Reported inhibition in vivo at 100 mg/kg?
43.5

***
Find the recorded inhibition in vivo at 100 mg/kg belonging to `Cc1ccc2oc(=O)n(CC(=O)N/N=C/c3ccccc3)c2c1` and report it.
62.5

Requested read-out: inhibition in vivo at 100 mg/kg. Entry: `Cc1ccc2oc(=O)n(CC(=O)N/N=C/c3ccc(Cl)cc3)c2c1`
62.5

Using the record for `Cc1ccc2oc(=O)n(Cc3n[nH]c(=S)n3-c3ccccc3)c2c1` , report its inhibition in vivo at 100 mg/kg.
49.6

What measured inhibition in vivo at 100 mg/kg goes with `CCCNC(=S)NNC(=O)Cn1c(=O)oc2ccc(C)cc21` ?
59.7

So what's the measured inhibition in vivo at 100 mg/kg for this one? `Cc1ccc2oc(=O)n(Cc3n[nH]c(=S)n3C)c2c1`
49.6

Param item = `CCNc1nnc(Cn2c(=O)oc3ccc(C)cc32)s1` ; retrieve measured inhibition in vivo at 100 mg/kg.
68.5

Fill in: inhibition in vivo at 100 mg/kg of `Cc1ccc2oc(=O)n(CC(=O)N/N=C/c3ccc(Br)cc3)c2c1` is ___
72.6

Name the reported inhibition in vivo at 100 mg/kg value associated with the molecule `Cc1ccc(/C=N/NC(=O)Cn2c(=O)oc3ccc(C)cc32)cc1`
77.8

Entry `CNc1nnc(Cn2c(=O)oc3ccc(C)cc32)s1` : reported inhibition in vivo at 100 mg/kg = ?
73.8

###

# System: Mus musculus
# measurement-description: Antiinflammatory activity against carrageenan-induced hind paw oedema in mouse assessed as swelling thickness at 200 mg/kg, po after 360 mins
# Assay type: functional
property-measured: Activity (%)
The response must be a number in % with no trailing unit.

Data request, read-out Activity, for `Cc1ccc2oc(=O)n(CC(=O)N/N=C/c3ccc(Br)cc3)c2c1`
84.4

Fill blank: measured Activity of the compound `COc1ccc(/C=N/NC(=O)Cn2c(=O)oc3ccc(C)cc32)cc1` is ____.
86.2

Returns the measured Activity for the input compound. Input: `Cc1ccc2oc(=O)n(Cc3n[nH]c(=S)n3C)c2c1`
79.1

Attention now turns to another entry.
Look at this compound and give its reported Activity. `Cc1ccc(/C=N/NC(=O)Cn2c(=O)oc3ccc(C)cc32)cc1`
83.6

###

Below: a set of entries, each annotated with reported inhibition in vivo at 200 mg/kg.
# System: Mus musculus
# measurement-description: Antiinflammatory activity against carrageenan-induced hind paw oedema in mouse assessed as inhibition of swelling thickness at 200 mg/kg, po after 360 mins
# Format: functional
# applied-conditions: 6 h
Supply the numeric figure in %, leaving out any unit text.

Would you mind telling me what inhibition in vivo at 200 mg/kg value was observed for `Cc1ccc2oc(=O)n(Cc3n[nH]c(=S)n3-c3ccccc3)c2c1` ?
5.5

I have this compound here, `CCNc1nnc(Cn2c(=O)oc3ccc(C)cc32)s1` , and I need its recorded inhibition in vivo at 200 mg/kg.
11.1

Recorded inhibition in vivo at 200 mg/kg of `Cc1ccc2oc(=O)n(CC(=O)NNC(=S)Nc3ccccc3)c2c1` , please.
34.1

Value lookup for inhibition in vivo at 200 mg/kg; key = `CCNC(=S)NNC(=O)Cn1c(=O)oc2ccc(C)cc21`
47.2

Requested read-out: inhibition in vivo at 200 mg/kg. Entry: `Cc1ccc2oc(=O)n(CC(=O)NN)c2c1`
51.6

###

Reported Activity is given for each of the following compounds.
# Test system: Mus musculus
# measurement-description: Antiinflammatory activity against carrageenan-induced hind paw oedema in mouse assessed as swelling thickness at 50 mg/kg, po after 360 mins
# Format: functional
// return numeric value only (unit: %, not printed)

Observe how each entry below is paired with its result.
What does the data say about its Activity? Entry: `CNc1nnc(Cn2c(=O)oc3ccc(C)cc32)s1`
96

Record request: Activity value, item `Cc1ccc2oc(=O)n(CC(=O)NN)c2c1`
101.1

Reported Activity for `CNC(=S)NNC(=O)Cn1c(=O)oc2ccc(C)cc21` : what is it?
188.9

Which measured Activity value corresponds to `Cc1ccc2oc(=O)n(CC(=O)N/N=C/c3ccc(Cl)cc3)c2c1` ?
107

Consider the compound shown here: `Cc1ccc2oc(=O)n(CC(=O)N/N=C/c3ccc(Br)cc3)c2c1` What is its recorded Activity?
83

Continuing:
Quick check: Activity of `COc1ccc(/C=N/NC(=O)Cn2c(=O)oc3ccc(C)cc32)cc1` ?
87.2

# query: Activity of entry `CCCNC(=S)NNC(=O)Cn1c(=O)oc2ccc(C)cc21`
176.7

Entry `Cc1ccc2oc(=O)n(CC(=O)N/N=C/c3ccccc3)c2c1` has what Activity?
115

Any idea what Activity was measured for `CCNC(=S)NNC(=O)Cn1c(=O)oc2ccc(C)cc21` ?
127.8

Given `Cc1ccc2oc(=O)n(Cc3n[nH]c(=S)n3-c3ccccc3)c2c1` , state its recorded Activity.
147.2

Quick one: Activity for `Cc1ccc(/C=N/NC(=O)Cn2c(=O)oc3ccc(C)cc32)cc1` ?
98

Which Activity reading was recorded for the compound `CCn1c(Cn2c(=O)oc3ccc(C)cc32)n[nH]c1=S` ?
146.7

Need Activity, item `Cc1ccc2oc(=O)n(CC(=O)NNC(=S)Nc3ccccc3)c2c1`
153.3

Sample `CCNc1nnc(Cn2c(=O)oc3ccc(C)cc32)s1` — what was its Activity?
94

Please report the recorded Activity for `Cc1ccc2oc(=O)n(Cc3n[nH]c(=S)n3C)c2c1` .
97.8

###

# Tested on: Candida parapsilosis
# measurement-description: Antifungal activity against Candida parapsilosis ATCC 22019 after 48 hrs by broth microdilution test
# Format: functional
# applied-conditions: Lodderomyces parapsilosis, ATCC 22019, 48 h
Quick reference: MIC of the listed items.
Return type: number; implicit unit µg/mL.

# MIC lookup, item `Cc1ccc(/C=N/NC(=O)Cn2c(=O)oc3ccc(C)cc32)cc1`
128

So what does the record say about MIC for `Cc1ccc2oc(=O)n(CC(=O)NNC(=S)Nc3ccccc3)c2c1` ?
128

Fill blank: measured MIC of the compound `OC(Cn1cncn1)(Cn1cncn1)c1ccc(F)cc1F` is ____.
8

***
If you can, please state the reported MIC value of `Cc1ccc2oc(=O)n(Cc3n[nH]c(=S)n3C)c2c1` .
256

Entry under review: `Cc1ccc2oc(=O)n(CC(=O)N/N=C/c3ccc(Cl)cc3)c2c1` . Reported MIC?
256
